// provenance: PubChem BioAssay (EPA / NIEHS)

assay: ATG_Sox_CIS: Attagene CIS-FACTORIAL HepG2 Assay for human SRY-box transcription factor (SOX) (AID 2282960); conditions: HepG2 Attagene cis-factorial SOX reporter, mRNA; actives raise or lower the signal
Calls of active or inactive are those of the source. The calls were made as follows: active = hit-call score of the fitted dose curve at least 0.9, where 1 is the maximum; inactive = score below 0.9.
Log the outcome using a class from active, inactive

>>> df
                               compound  classification
0                             O=C1CCCO1        inactive
1   CN(C)c1ccc(C(=O)c2ccc(N(C)C)cc2)cc1        inactive
2                             ClCCOCCCl        inactive
3  c1ccc(C2CO2)cc1 (stereo unspecified)        inactive
4        CCCCCOC(=O)c1ccccc1C(=O)OCCCCC        inactive
5                  c1ccc(NNc2ccccc2)cc1        inactive
6               O=C(Nc1ccccc1)c1ccccc1I        inactive
7                                 OCCCl        inactive

Query: Just curious, what result did CCCCOC(=O)c1ccccc1C(=O)OCc1ccccc1 get here?
Response: inactive

Query: Just curious, what result did CC(C)(C)C(O)(CCc1ccc(Cl)cc1)Cn1cncn1 (stereo unspecified) get here?
Response: inactive

Query: Just curious, what result did ClC1=C(Cl)C2(Cl)C3C(Cl)C=CC3C1(Cl)C2(Cl)Cl (stereo unspecified) get here?
Response: inactive

Query: Just curious, what result did c1ccc(N=Nc2ccccc2)cc1 get here?
Response: inactive

Query: Just curious, what result did O=C(N[C@H](c1ccccc1)[C@@H]1CN2CCC1CC2)c1c(Cl)ccc(C(F)(F)F)c1Cl get here?
Response: inactive

Query: Just curious, what result did c1ccc2c(c1)-c1cccc3cccc-2c13 get here?
Response: inactive

Query: Just curious, what result did CCCCCCCCCCCCCN1CC(C)OC(C)C1 (stereo unspecified) get here?
Response: inactive
